Each record here notes measured CC50 at 24 h.
Assay: Erythrosin B dye exclusion viability test, THP-1
Type: cell-based
Conditions: human, THP-1 cells; erythrosin B exclusion test, 24 h, mean ± SD; read-out: THP-1 LC50
experimental endpoint: CC50 at 24 h (µM)

                                   compound  experimental_endpoint  unit_label  result_qualifier  meas_value
0  O=C(Nc1ccc([N+](=O)[O-])cc1)c1c(O)ccc2ccccc12 [Compound 6]           CC50 at 24 h          µM                 =        9.98
1  O=C(Nc1cccc([N+](=O)[O-])c1)c1cc2ccccc2cc1O [Compound 2]           CC50 at 24 h          µM                 =        7.91
2  O=C(Nc1ccccc1[N+](=O)[O-])c1cc2ccccc2cc1O [Compound 1]           CC50 at 24 h          µM                 >          20
3  O=C(Nc1cccc([N+](=O)[O-])c1)c1c(O)ccc2ccccc12 [Compound 5]           CC50 at 24 h          µM                 >          20
4  O=C(Nc1ccccc1[N+](=O)[O-])c1c(O)ccc2ccccc12 [Compound 4]           CC50 at 24 h          µM                 >          20
5  O=C(Nc1ccc([N+](=O)[O-])cc1)c1cc2ccccc2cc1O [Compound 3]           CC50 at 24 h          µM                 =        3.44
